Provenance of the data: patent US8022217B2

# study.target: recombinant CETP (Homo sapiens, UniProt P11597)
# Sequence (P11597 18-493): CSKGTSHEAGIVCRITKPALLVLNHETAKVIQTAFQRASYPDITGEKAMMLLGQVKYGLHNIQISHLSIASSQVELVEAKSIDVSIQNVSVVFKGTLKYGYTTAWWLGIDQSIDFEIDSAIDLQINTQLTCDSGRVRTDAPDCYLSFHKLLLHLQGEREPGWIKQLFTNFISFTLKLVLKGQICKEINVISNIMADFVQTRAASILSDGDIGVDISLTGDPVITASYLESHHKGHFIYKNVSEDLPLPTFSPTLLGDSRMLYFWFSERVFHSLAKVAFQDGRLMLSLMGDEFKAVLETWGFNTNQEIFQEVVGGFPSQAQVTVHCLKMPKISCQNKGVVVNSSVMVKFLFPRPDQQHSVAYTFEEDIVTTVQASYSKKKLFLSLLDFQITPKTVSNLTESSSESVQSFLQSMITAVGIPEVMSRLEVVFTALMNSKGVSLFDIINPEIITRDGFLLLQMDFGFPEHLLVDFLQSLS
# assay.protocol: CETP in-vitro assay (Scintillation Proximity Assay, transfer of [3H] cholesteryl ester from HDL to biotinylated LDL)
# Type: biochemical
# experimental.conditions: 10 μmole concentration
Structures can show the parent of a compound that is named as a salt.
property.label: inhibition at 10 µM (%)

> print(dat)
                                   molecule  value.unit  value.measured
1  CC(C)(C)c1ccc(CN(CCc2ccc(Cl)c(Cl)c2)C(=O)c2cccc3c2NCCC3)cc1 [Compound 48, hydrochloride salt]           %              79
2  COc1ccc(CCN(Cc2ccc(C(C)(C)C)cc2)C(=O)c2cccc3c2NCCC3)cc1OC           %              80
3  Cc1cc2c(c(C(=O)N(CCc3ccc(F)cc3)Cc3ccc(C(C)(C)C)cc3)c1)NCCC2           %              80
4  CC(C)(C)c1ccc(CN(CCc2ccc(Cl)c(Cl)c2)C(=O)c2cc(F)cc3c2NCCC3)cc1           %              82
5  CC(C)(C)c1ccc(CN(CCc2ccc(Cl)c(Cl)c2)C(=O)c2cc(Cl)cc3c2NCCC3)cc1           %              85
6  CC(C)(C)c1ccc(CN(CCc2ccc(F)cc2)C(=O)c2cc(F)cc3c2NCCC3)cc1           %              76
7  CC(C)(C)c1ccc(CN(CCc2ccc(F)cc2)C(=O)c2ccc(Cl)c3c2NCCC3)cc1           %              67
